# ASSAY_SUMMARY: Pharmacokinetics Assay in rats, intragastric administration, LC/MS/MS
# Type: in vivo
# EXPERIMENTAL_CONTEXT: both sexes, rat, plasma, po, SD rats, 25 mg/kg, read-out: Half-Life t½ (converted)
# Method: The pharmacokinetic behavior of the compounds of the present invention was studied and evaluated in rats. 8 healthy adult SD rats, male and female in half, were purchased from SINO-BRITSH SIPPR/BK LAB. ANIMAL LTD., CO, License number: SCXK (Shanghai) 2003-0002 The right amount of compounds were weighted and grinded with 0.5% Sodium Carboxymethyl cellulose uniformly, suspended them with 1% tween 80 to 2.5 mg/mL of suspension before use. […] 10 μL of the supernatant was analyzed by LC-MS/MS. […]
Entries and their half-life values follow.
MEASUREMENT_TYPE: half-life (h)

item_smiles=CCOc1cc2ncc(C#N)c(Nc3ccc(OCc4ccccn4)c(Cl)c3)c2cc1NC(=O)/C=C/[C@@H]1CCCN1C observed_value=4.04
item_smiles=CCOc1cc2ncc(C#N)c(Nc3ccc(OCc4ccccn4)c(Cl)c3)c2cc1NC(=O)/C=C/[C@H]1CCCN1C observed_value=3.4

====

# ASSAY_SUMMARY: Pharmacokinetics Assay in rats, intragastric administration, LC/MS/MS
# Type: in vivo
# EXPERIMENTAL_CONTEXT: both sexes, rat, plasma, po, SD rats, 25 mg/kg, read-out: Mean Residence Time MRT
MEASUREMENT_TYPE: MRT (h)

molecule="CCOc1cc2ncc(C#N)c(Nc3ccc(OCc4ccccn4)c(Cl)c3)c2cc1NC(=O)/C=C/[C@@H]1CCCN1C [Example 1]" observed_value=7.78

====

# TEST_TARGET: EGFR kinase (Homo sapiens (Human))
# Sequence (P00533 25-1210): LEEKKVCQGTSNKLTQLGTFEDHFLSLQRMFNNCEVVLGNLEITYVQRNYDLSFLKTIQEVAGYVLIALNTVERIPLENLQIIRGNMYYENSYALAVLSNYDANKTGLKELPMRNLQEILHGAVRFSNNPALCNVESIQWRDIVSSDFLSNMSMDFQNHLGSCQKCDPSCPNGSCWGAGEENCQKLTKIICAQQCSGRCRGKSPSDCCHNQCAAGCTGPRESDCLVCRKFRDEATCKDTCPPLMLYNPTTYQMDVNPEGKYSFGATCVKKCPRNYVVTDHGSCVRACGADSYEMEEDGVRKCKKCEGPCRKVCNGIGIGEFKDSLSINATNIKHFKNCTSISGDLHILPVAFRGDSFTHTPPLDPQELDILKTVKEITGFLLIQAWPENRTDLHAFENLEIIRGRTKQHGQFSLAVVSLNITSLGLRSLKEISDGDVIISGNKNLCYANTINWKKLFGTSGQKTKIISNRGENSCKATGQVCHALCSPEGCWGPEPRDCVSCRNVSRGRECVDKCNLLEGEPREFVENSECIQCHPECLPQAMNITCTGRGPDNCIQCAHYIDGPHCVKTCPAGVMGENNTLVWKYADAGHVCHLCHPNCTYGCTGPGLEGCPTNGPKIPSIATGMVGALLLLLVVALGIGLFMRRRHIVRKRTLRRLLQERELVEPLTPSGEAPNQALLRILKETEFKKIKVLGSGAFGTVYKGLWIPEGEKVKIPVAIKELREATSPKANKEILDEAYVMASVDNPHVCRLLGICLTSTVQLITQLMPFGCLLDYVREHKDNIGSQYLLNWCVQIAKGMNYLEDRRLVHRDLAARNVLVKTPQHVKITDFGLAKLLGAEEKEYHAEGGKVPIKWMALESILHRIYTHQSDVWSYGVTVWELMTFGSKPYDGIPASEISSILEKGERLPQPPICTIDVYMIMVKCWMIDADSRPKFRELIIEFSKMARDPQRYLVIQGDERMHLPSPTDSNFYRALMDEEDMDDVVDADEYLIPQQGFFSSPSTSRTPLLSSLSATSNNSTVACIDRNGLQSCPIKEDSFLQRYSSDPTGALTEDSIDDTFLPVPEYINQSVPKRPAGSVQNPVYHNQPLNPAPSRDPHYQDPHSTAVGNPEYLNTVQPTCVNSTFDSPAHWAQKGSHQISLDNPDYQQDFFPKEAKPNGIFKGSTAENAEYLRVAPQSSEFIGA
# ASSAY_SUMMARY: EGFR Kinase Activity Assay (Time-Resolved fluorescence)
# EXPERIMENTAL_CONTEXT: human-derived recombinant EGFR kinase, 20 μM ATP, 25° C., 45 minutes; read-out: IC50 (EGFR/BIO)
MEASUREMENT_TYPE: IC50 (nM)

item_smiles=CCOc1cc2ncc(C#N)c(Nc3ccc(OCc4ccccn4)c(Cl)c3)c2cc1NC(=O)/C=C/[C@@H]1C[C@@H](O)CN1C measurement_type=IC50 observed_value=59
item_smiles=CCOc1cc2ncnc(Nc3ccc(F)c(Cl)c3)c2cc1NC(=O)/C=C/[C@@H]1CCCN1C measurement_type=IC50 observed_value=4
item_smiles=CCOc1cc2ncc(C#N)c(Nc3ccc(OCc4ccccn4)c(Cl)c3)c2cc1NC(=O)/C=C/[C@@H]1CCCN1 measurement_type=IC50 observed_value=6
item_smiles=CCOc1cc2ncnc(Nc3ccc(F)c(Cl)c3)c2cc1NC(=O)/C=C/[C@H]1CCCN1C measurement_type=IC50 observed_value=2
